Field: HCT-116 % Inhibition at 0.25 μM. Provide a value for each of the compounds that follow.
System: HCT-116 cell line
Assay: Inhibition of cell growth, tetrazolium salt (MTT) assay
Assay type: cell-based
Details: 0.25 μM compound; HCT-116; Table 2
One number for each entry, in %.

Please review the entries below; each comes with its answer.
COMPOUND_STRUCTURE: Cc1cc(C)c(NC(=O)N2CCC(Nc3nc(N)c(C(=O)c4c(F)cccc4F)s3)CC2)c(C)c1
HCT-116 % Inhibition at 0.25 μM [%]: 41
--
COMPOUND_STRUCTURE: CCCCCCNC(=O)N1CCC(Nc2nc(N)c(C(=O)c3c(F)cccc3F)s2)CC1
HCT-116 % Inhibition at 0.25 μM [%]: 42

Quick one: give me HCT-116 % Inhibition at 0.25 μM for each item below, same order please.
1. Nc1nc(NC2CCN(C(=O)Nc3cc(C(F)(F)F)ccc3F)CC2)sc1C(=O)c1c(F)cccc1F
2. Cc1cccc(NC(=O)N2CCC(Nc3nc(N)c(C(=O)c4c(F)cccc4F)s3)CC2)c1

1. 47
2. 8

# return HCT-116 % Inhibition at 0.25 μM for "CCOC(=O)c1cccc(NC(=O)N2CCC(Nc3nc(N)c(C(=O)c4c(F)cccc4F)s3)CC2)c1" , test system: HCT-116 cell line
41

###

Molecular target: CDK2/Cyclin A (Homo sapiens, UniProt P24941)
Test: Inhibition of CDK2/Cyclin A Retinoblastoma Kinase Activity
Type: biochemical
Settings: read-out: % inhibition of CDK2 (@ 0.05 μM), compound at 0.05 μM
Procedure: Cyclin-dependent kinase activity was measured by quantifying the enzyme-catalyzed, time-dependent incorporation of radioactive phosphate from [^32P]ATP or [^33P]ATP into a protein substrate. […] The phosphorylated substrate was then captured on a nitrocellulose or phosphocellulose membrane using a 96-well filtration manifold, and unincorporated radioactivity was removed by repeated washing with 0.85% phosphoric acid. Radioactivity was quantified by exposing the dried membranes to a phosphorimager. […]
RECORDED_ENDPOINT: inhibition at 0.05 µM (%)
Answers are plain numbers, in %.

COMPOUND: CCc1cccc(NCCCS(=O)(=O)N2CCC(Nc3nc(N)c(C(=O)c4c(F)cccc4F)s3)CC2)n1
UNITS_OF_MEASURE: %
RESULT_NUMBER: 79
--
COMPOUND: C=C(C)CN(C)CCCS(=O)(=O)N1CCC(Nc2nc(N)c(C(=O)c3c(F)cccc3F)s2)CC1
UNITS_OF_MEASURE: %
RESULT_NUMBER: 76

Quick one: give me inhibition at 0.05 µM for each item below, same order please.
1. COCCNCCCS(=O)(=O)N1CCC(Nc2nc(N)c(C(=O)c3c(F)cccc3F)s2)CC1
2. Nc1nc(NC2CCN(S(=O)(=O)CCCNCCC3=CCCCC3)CC2)sc1C(=O)c1c(F)cccc1F
3. CC(C)NCCCS(=O)(=O)N1CCC(Nc2nc(N)c(C(=O)c3c(F)cccc3F)s2)CC1
4. Nc1nc(NC2CCN(S(=O)(=O)CCCNCc3cccc(F)c3)CC2)sc1C(=O)c1c(F)cccc1F
5. Nc1nc(NC2CCN(S(=O)(=O)CCCNc3ccc4cccc(O)c4n3)CC2)sc1C(=O)c1c(F)cccc1F
6. Nc1nc(NC2CCN(S(=O)(=O)CCCNc3nccc4cccnc34)CC2)sc1C(=O)c1c(F)cccc1F

1. 87
2. 91
3. 84
4. 91
5. 80
6. 83

Quick one: give me inhibition at 0.05 µM for each item below, same order please.
1. CCc1ccnc(NCCCS(=O)(=O)N2CCC(Nc3nc(N)c(C(=O)c4c(F)cccc4F)s3)CC2)c1
2. Nc1nc(NC2CCN(S(=O)(=O)CCCNCCc3cccs3)CC2)sc1C(=O)c1c(F)cccc1F
3. Nc1nc(NC2CCN(S(=O)(=O)CCCN3CCC(O)C3)CC2)sc1C(=O)c1c(F)cccc1F (stereo not drawn)
4. Nc1nc(NC2CCN(S(=O)(=O)CCCN3CCOCC3)CC2)sc1C(=O)c1c(F)cccc1F

86
89
85
77

###

System: HCT-116 cell line
Experiment: Inhibition of cell growth, tetrazolium salt (MTT) assay
Assay type: cell-based
Settings: 0.1 μM compound; HCT-116; Table 3
RECORDED_ENDPOINT: HCT-116 % Inhibition at 0.1 μM (%)
Give bare numbers, in %.

Please review the entries below; each comes with its answer.
COMPOUND: COc1ccc(S(=O)(=O)N2CCC(Nc3nc(N)c(C(=O)c4c(F)cccc4F)s3)CC2)cc1OC [Example P38]
UNITS_OF_MEASURE: %
HCT-116 % Inhibition at 0.1 μM: 15
//
COMPOUND: Nc1nc(NC2CCN(S(=O)(=O)c3cc(Cl)sc3Cl)CC2)sc1C(=O)c1c(F)cccc1F [Example P35]
UNITS_OF_MEASURE: %
HCT-116 % Inhibition at 0.1 μM: 1

Switching to the query record.
Provide measured HCT-116 % Inhibition at 0.1 μM value, entry: Nc1nc(NC2CCN(S(=O)(=O)c3ccc(I)cc3)CC2)sc1C(=O)c1c(F)cccc1F [Example P16]
34

###

Target: CDK2/Cyclin A (Homo sapiens, UniProt P24941)
Experiment: Inhibition of CDK2/Cyclin A Retinoblastoma Kinase Activity
Conditions: apparent Ki, CDK2/proteolyzed cyclin A, Rb fragment substrate, 25 μM ATP
Where a name gives a salt, the structure may show the parent alone.
RECORDED_ENDPOINT: Ki

Please review the entries below; each comes with its answer.
COMPOUND: Nc1nc(NC2CCN(Cc3ccccn3)CC2)sc1C(=O)c1c(F)cccc1F
Ki: > 500 nM

COMPOUND: Nc1nc(NC2CCN(S(=O)(=O)c3ccc(Cc4ncc[nH]4)nc3)CC2)sc1C(=O)c1c(F)cccc1F [Example I4, Hydrochloride]
Ki: < 1 nM

Switching to the query record.
Provide measured Ki value, entry: "Nc1nc(NC2CCN(S(=O)(=O)c3ccc(F)cc3)CC2)sc1C(=O)c1c(F)cccc1F"
< 1 nM

###

Target: CDK2/Cyclin A (Homo sapiens)
Test: Inhibition of CDK2/Cyclin A Retinoblastoma Kinase Activity
Assay type: biochemical
Details: at 0.03 μM
RECORDED_ENDPOINT: CDK2 % Inhibition at 0.03 μM (%)
One number for each entry, in %.

MOLECULE: COc1ccc(Oc2ccc([N+](=O)[O-])cc2C(=O)N2CCC(Nc3nc(N)c(C(=O)c4c(F)cccc4F)s3)CC2)cc1 [Example R40]
UNITS_OF_MEASURE: %
CDK2 % Inhibition at 0.03 μM: 41

MOLECULE: Nc1nc(NC2CCN(C(=O)c3cnc(Cl)c(Cl)c3)CC2)sc1C(=O)c1c(F)cccc1F [Example R30]
UNITS_OF_MEASURE: %
CDK2 % Inhibition at 0.03 μM: 31

Switching to the query record.
Provide measured CDK2 % Inhibition at 0.03 μM value, entry: Nc1nc(NC2CCN(C(=O)CC3CCCC3)CC2)sc1C(=O)c1c(F)cccc1F [Example R78]
20

###

Target: CDK2/Cyclin A (Homo sapiens, UniProt P24941)
Assay: Inhibition of CDK2/Cyclin A Retinoblastoma Kinase Activity
Conditions: apparent Ki, CDK2/proteolyzed cyclin A, Rb fragment substrate, 25 μM ATP
Where a name gives a salt, the structure may show the parent alone.
RECORDED_ENDPOINT: Ki (nM)
Give bare numbers, in nM.

Please review the entries below; each comes with its answer.
COMPOUND: Cc1cccc(CNCCS(=O)(=O)N2CCC(Nc3nc(N)c(C(=O)c4c(F)cccc4F)s3)CC2)c1 [Example K41]
Ki [nM]: 0.63
//
COMPOUND: CN(C)CCCS(=O)(=O)N1CCC(Nc2nc(N)c(C(=O)c3c(F)cccc3F)s2)CC1 [Example K4]
Ki [nM]: 1.8
//
COMPOUND: CC(C)S(=O)(=O)N1CCC(Nc2nc(N)c(C(=O)c3c(F)cccc3F)s2)CC1 [Example F11]
Ki [nM]: 1.6
//
COMPOUND: CN(C)CCOc1ccc(S(=O)(=O)N2CCC(Nc3nc(N)c(C(=O)c4c(F)cccc4F)s3)CC2)cn1 [Example H3, Hydrochloride]
Ki [nM]: 1.8

Provide measured Ki value, entry: Nc1nc(NC2CCN(S(=O)(=O)Nc3ccccc3)CC2)sc1C(=O)c1c(F)cccc1F [Example E2]
1.2
